Where these numbers come from: paper PMC7826789

- Tested on: DRAK1;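 note: KINOMEscan scanMAX binding as percent activity remaining versus control; lower means stronger binding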
- Construct: gene STK17A
- condition_label: Compound Concentration (nM):1000

{"columns": ["compound", "experimental_target", "Percent Control / %"],
 "data": [
  ["COc1cc2ncn(-c3cc(O[C@H](C)c4ccccc4Cl)c(C(N)=O)s3)c2cc1OC [GSK237701A]", "DRAK1", 100],
  ["Cl.O=C(Nc1ccc(Oc2ccc3[nH]c(NC(=O)c4ccco4)nc3c2)cc1)Nc1cc(C(F)(F)F)ccc1F [GW683134A]", "DRAK1", 100],
  ["COC(=O)Nc1nc2ccc(Oc3ccc(NC(=O)Nc4cc(C(F)(F)F)ccc4F)cc3)cc2s1.Cl [GW693917A]", "DRAK1", 100],
  ["COc1cc(C=NNc2ncnc3c2cnn3-c2ccccc2)ccc1O [GW513184X]", "DRAK1", 83],
  ["COc1ccc2c(-c3ccnc(Nc4cccc(OC(F)(F)F)c4)n3)cnn2n1 [GW810372X]", "DRAK1", 81],
  ["C[C@@H](Oc1cc(-n2cnc3ccc(OC4CCN(C)CC4)cc32)sc1C(N)=O)c1ccccc1Cl [GSK579289A]", "DRAK1", 100],
  ["Cl.O=S1CCN(Cc2ccc(-c3ccc4ncnc(Nc5ccc(OCc6ccccc6)c(F)c5)c4c3)o2)CC1 [GW576924A]", "DRAK1", 100],
  ["CN(C)CCNC(=O)Nc1ccc(N(C)c2ccnc(Nc3ccc(CS(C)(=O)=O)cc3)n2)cc1.Cl [GW830900A]", "DRAK1", 100],
  ["CN(C)c1cc2c(Nc3ccc4c(cnn4Cc4ccccc4)c3)ncnc2cn1 [GW282974X]", "DRAK1", 69],
  ["CCS(=O)(=O)c1ccc(OC)c(Nc2ncc(-c3cccc(F)c3)o2)c1 [GW621970X]", "DRAK1", 100]
]}
